These data points were gathered from patent US20210023171A1.

assayed system: T1, αvβ3 integrin (soluble / detergent-solubilized) (UniProt P06756 31-1048; P05106 27-788)
T1 construct: also called integrin αvβ3; soluble αvβ3 integrin
T1 sequence (P06756 31-1048, chain 1 of 2): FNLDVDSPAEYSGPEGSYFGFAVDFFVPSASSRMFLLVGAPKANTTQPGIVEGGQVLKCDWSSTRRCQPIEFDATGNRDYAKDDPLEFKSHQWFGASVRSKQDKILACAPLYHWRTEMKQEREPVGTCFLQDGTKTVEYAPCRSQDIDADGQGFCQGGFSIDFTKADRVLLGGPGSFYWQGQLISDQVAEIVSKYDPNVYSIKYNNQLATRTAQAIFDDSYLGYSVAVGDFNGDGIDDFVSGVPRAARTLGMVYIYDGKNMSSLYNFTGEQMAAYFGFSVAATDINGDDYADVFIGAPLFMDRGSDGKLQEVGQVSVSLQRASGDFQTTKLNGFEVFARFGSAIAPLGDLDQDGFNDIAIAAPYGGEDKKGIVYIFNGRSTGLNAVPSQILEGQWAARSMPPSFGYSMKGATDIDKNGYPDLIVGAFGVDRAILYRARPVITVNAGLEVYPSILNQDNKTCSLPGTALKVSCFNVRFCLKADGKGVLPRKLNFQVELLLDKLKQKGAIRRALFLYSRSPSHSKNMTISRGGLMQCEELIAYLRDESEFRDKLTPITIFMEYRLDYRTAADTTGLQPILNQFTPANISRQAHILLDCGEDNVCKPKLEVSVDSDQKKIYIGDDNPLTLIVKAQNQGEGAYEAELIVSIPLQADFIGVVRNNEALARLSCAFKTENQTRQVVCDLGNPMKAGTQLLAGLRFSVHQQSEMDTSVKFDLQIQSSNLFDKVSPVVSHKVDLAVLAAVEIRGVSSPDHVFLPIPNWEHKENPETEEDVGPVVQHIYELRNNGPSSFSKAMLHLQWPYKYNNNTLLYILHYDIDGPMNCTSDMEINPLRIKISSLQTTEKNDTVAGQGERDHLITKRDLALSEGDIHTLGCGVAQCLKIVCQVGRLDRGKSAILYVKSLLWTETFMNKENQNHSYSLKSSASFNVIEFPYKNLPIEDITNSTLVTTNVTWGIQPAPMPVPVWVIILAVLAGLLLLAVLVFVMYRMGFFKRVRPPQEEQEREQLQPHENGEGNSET
T1 sequence (P05106 27-788, chain 2 of 2): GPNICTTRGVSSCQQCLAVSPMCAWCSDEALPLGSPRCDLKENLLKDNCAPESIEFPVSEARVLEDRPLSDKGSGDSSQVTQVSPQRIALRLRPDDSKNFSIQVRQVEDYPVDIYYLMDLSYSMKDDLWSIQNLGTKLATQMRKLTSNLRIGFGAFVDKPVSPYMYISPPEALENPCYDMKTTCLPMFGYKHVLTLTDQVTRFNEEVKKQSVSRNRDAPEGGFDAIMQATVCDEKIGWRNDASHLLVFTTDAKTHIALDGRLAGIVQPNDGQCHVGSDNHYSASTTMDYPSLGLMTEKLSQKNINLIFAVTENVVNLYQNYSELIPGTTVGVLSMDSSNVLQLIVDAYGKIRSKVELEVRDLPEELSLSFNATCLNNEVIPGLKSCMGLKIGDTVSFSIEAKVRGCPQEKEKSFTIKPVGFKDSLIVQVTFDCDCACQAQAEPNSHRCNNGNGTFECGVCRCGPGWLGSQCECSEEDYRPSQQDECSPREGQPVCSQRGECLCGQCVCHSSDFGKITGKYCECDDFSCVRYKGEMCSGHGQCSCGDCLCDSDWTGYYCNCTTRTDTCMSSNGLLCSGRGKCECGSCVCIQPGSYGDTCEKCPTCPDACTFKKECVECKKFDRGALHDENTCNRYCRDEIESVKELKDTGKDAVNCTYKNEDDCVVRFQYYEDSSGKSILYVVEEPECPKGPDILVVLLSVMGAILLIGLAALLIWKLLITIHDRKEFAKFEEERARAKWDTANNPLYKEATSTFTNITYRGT
assay notes: yeast display, flow cytometry, 50 nM integrin, gross estimate
reported metric: Kd

[[record]]
binder = "GCTIGRGDWAPSECKQDSDCLAGCVCGPNGFCG [1.5B (yeast-displayed EETI-based variant)]"
result = "~0.05 µM"

[[record]]
binder = "GCPQGRGDWAPTSCKQDSDCRAGCVCGPNGFCG [2.5D (yeast-displayed EETI-based variant)]"
result = "~0.05 µM"


Continue with the binder presented below.
*Q* Answer with reported Kd of GCHVGRGDWAPEECKQDSDCQAGCVCGPNGFCG [2.5A (yeast-displayed EETI-based variant)]
*A* ~0.05 µM
